- TESTED_TARGET: Glucose transporter (Leishmania mexicana) (UniProt O61059)
- PROTOCOL_DETAILS: ST_JUDE_LEISH: Cytotoxicity at 2uM final concentration against transgenic Leishmania Mexicana promastigotes LmGT2 that are glucose transport deficient and complemented with the L. Mexicana glucose transporter 2. Activity is measured by DNA content using SYBR green in vitro
- Format: functional
Reported inhibition values for a set of molecules
Report as a plain number; the unit % is understood.

A selection of reference data follows.
molecule=CCN1CCN(c2cc(C)c3cc(NC(=O)c4ccc(C(C)(C)C)cc4)ccc3n2)CC1 measurement_name=inhibition data_value=1.59
molecule=c1ccc(Oc2ccc(Nc3nc(NCCc4c[nH]cn4)nc(NC4CCCC4)n3)cc2)cc1 measurement_name=inhibition data_value=6.19
molecule=CC(=O)Nc1ccc(CN(Cc2cccc(OC(C)(C)C)c2)Cc2ccc3c(c2)OCCO3)cc1 measurement_name=inhibition data_value=6.39
molecule=CO/C(=C\C=C\c1cc2cc(Cl)c(Cl)cc2[nH]1)C(=O)NCCCN1CCN(Cc2ccccc2)CC1 measurement_name=inhibition data_value=2.11

Q: Request - read-out inhibition | tested on Glucose transporter (Leishmania mexicana) (UniProt O61059) | molecule COc1ccc(NC(=O)N2CCCN(CCCCCNC(=O)/C=C/c3ccc(Cl)cc3)CC2)cc1Cl
Result: 0.93

Q: Request - read-out inhibition | tested on Glucose transporter (Leishmania mexicana) (UniProt O61059) | molecule Cc1ccc(NC(=O)Cc2noc(CC3CCCN3C(=O)N[C@@H](C)c3ccccc3)n2)cc1 (some centres undefined)
Result: 1.32

----------
- TESTED_TARGET: Solute carrier family 2, facilitated glucose transporter member 1 (Homo sapiens)
- PROTOCOL_DETAILS: ST_JUDE_LEISH: Cytotoxicity at 2uM final concentration against transgenic Leishmania Mexicana promastigotes LmGLUT1 that are glucose transport deficient and complemented with the human glucose transporter GLUT1. Activity is measured by DNA content using SYBR green in vitro
- Type: functional
Reported inhibition values for a set of molecules
Report as a plain number; the unit % is understood.

molecule="O=C(CCn1cncn1)N1CCCC(c2[nH]c3ccccc3c2-c2ccncc2)C1 (centres undefined)" unit_info=% data_value=-2.2

Q: Look at this molecule and give its reported inhibition. c1ccc(-n2cncn2)cc1
Result: 0.46

Q: Look at this molecule and give its reported inhibition. N#Cc1ccc(C=Cc2nccc3c2[nH]c2ccccc23)cc1
Result: 10.9

Q: Look at this molecule and give its reported inhibition. Cc1c(CNCCCNc2cc(=O)c3ccccc3[nH]2)sc(/C=N/O)c1Br
Result: 5.48

Q: Look at this molecule and give its reported inhibition. O=C(Nc1ccc(-c2ccc(-c3nc4ccccc4[nH]3)s2)cc1)Nc1ccc(F)c(F)c1F
Result: 0.57

Q: Look at this molecule and give its reported inhibition. CC(=O)NC1=NC(C)(C)N(OCc2ccc(Cl)c(Cl)c2)C(NC(C)=O)=N1
Result: -0.21

----------
- TESTED_TARGET: Glucose transporter (Leishmania mexicana) (UniProt O61059)
- PROTOCOL_DETAILS: ST_JUDE_LEISH: Cytotoxicity at 2uM final concentration against transgenic Leishmania Mexicana promastigotes LmGT2 that are glucose transport deficient and complemented with the L. Mexicana glucose transporter 2. Activity is measured by DNA content using SYBR green in vitro
- Type: functional
Reported inhibition values for a set of molecules
Report as a plain number; the unit % is understood.

Q: Look at this molecule and give its reported inhibition. CCCS(=O)(=O)N1CCC(CO)(Cc2ccccc2C(F)(F)F)CC1
Result: 2.87
